Assayed system: XIAP BIR1/2 (Homo sapiens, UniProt P98170)
Sequence (P98170 whole entry, looked up): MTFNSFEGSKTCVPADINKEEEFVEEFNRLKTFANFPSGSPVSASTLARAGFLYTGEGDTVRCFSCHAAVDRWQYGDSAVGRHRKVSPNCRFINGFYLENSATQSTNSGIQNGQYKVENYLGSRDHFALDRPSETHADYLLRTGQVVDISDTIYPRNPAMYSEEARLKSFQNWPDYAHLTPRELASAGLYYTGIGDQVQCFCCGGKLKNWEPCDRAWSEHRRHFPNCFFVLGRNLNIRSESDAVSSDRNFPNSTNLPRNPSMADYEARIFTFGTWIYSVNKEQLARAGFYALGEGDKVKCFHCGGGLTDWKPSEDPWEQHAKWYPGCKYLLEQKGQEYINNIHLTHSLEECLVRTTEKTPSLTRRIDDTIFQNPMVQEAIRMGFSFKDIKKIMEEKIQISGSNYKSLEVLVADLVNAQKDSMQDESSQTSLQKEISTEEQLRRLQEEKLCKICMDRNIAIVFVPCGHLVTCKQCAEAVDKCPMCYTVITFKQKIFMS
Procedure details: XIAP BIR1/2 Ki
Format: binding
Condition info: Table B-1
Parameter: Ki

- Compound: "CN[C@@H](C)C(=O)N[C@H]1CCO[C@H]2CC[C@@H](C(=O)Nc3cccc4ccccc34)N2C1=O"
  Ki: "< 25 µM"
- Compound: "CN[C@@H](C)C(=O)N[C@H]1CO[C@H]2CCC(C(=O)Nc3ccc(OC)cc3)N2C1=O (stereo partly shown)"
  Ki: "> 50 µM"
- Compound: "CC(=O)N(C)[C@@H](C)C(=O)N[C@H]1CCCN(C(C)=O)[C@H]2CCC(C(=O)Nc3cccc4ccccc34)N2C1=O (stereo partly shown)"
  Ki: "> 50 µM"
- Compound: "CN[C@@H](C)C(=O)N[C@H]1CCCN(C(C)=O)C2CCC(C(=O)N[C@@H]3CCCc4ccccc43)N2C1=O (stereo partly shown)"
  Ki: "> 50 µM"
- Compound: "CN[C@@H](C)C(=O)N[C@H]1Cc2ccc(O)cc2[C@H]2CC(C)(C)C(C(=O)N[C@@H]3CCCc4ccccc43)N2C1=O (stereo partly shown)"
  Ki: "< 25 µM"
- Compound: "CN[C@@H](C)C(=O)N[C@@H]1C(=O)N2C(C(=O)Nc3cccc4ccccc34)CC[C@@H]2O[C@@H]1C (stereo partly shown)"
  Ki: "> 50 µM"

With those in mind, consider the next compound.
Look up Ki with XIAP BIR1/2 (Homo sapiens, UniProt P98170) for this compound: CN[C@@H](C)C(=O)N[C@H]1Cc2c([nH]c3ccccc23)[C@H]2CCC(C(=O)N[C@@H]3CCCc4ccccc43)N2C1=O (stereo partly shown) [Product 30]
> 50 µM

* * *

Assayed system: XIAP BIR1/2 (Homo sapiens)
Procedure details: XIAP BIR1/2 Ki
Format: binding
Condition info: Table 2-2
pKi: −log10 of the molar value.
Catalogue of pKi readings, one per entry.

Previously resolved entries follow.
- Molecule: "CN[C@@H](C)C(=O)N[C@H]1CCS[C@H]2CC(C)(C)C(C(=O)N[C@@H]3CCCc4ccccc43)N2C1=O (stereo partly drawn) [Product 17c]"
  pKi: "> 4.60"
- Molecule: "CN[C@@H](C)C(=O)N[C@H]1CCO[C@H]2CC(C)(C)C(C(=O)N[C@@H]3CCCc4ccccc43)N2C1=O (stereo partly drawn) [Product 17b]"
  pKi: "> 4.60"

Consider the additional molecule presented here.
Please state recorded pKi (tested on XIAP BIR1/2 (Homo sapiens)) of CN[C@@H](C)C(=O)N[C@H]1CCO[C@H]2c3ccccc3C(C(=O)N[C@@H]3CCCc4ccccc43)N2C1=O (stereo partly drawn) [Product 17a]
< 4.30
